# tested.target: human sEH (Homo sapiens (Human))
# Sequence (P34913 whole entry): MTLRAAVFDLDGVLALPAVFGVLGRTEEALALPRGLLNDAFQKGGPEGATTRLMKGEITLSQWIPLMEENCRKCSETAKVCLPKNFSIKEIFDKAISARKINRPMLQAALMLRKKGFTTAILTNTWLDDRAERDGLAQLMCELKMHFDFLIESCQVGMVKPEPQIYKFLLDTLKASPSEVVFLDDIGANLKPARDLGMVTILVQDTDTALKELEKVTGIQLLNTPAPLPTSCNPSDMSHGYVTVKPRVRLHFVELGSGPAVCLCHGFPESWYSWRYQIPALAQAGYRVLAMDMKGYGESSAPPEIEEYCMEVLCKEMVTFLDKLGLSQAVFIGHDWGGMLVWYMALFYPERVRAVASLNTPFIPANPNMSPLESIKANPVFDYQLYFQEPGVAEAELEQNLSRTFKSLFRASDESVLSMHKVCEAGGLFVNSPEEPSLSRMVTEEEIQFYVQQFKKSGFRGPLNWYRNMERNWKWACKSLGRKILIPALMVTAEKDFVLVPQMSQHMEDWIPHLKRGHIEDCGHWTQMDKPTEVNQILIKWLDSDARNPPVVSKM
# experiment.notes: Inhibition of human soluble epoxide hydrolase (IC50; one of three substrate methods);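 further: enzyme expressed in baculovirus and affinity-purified, assays run in triplicate, with substrate and read-out differing among the three methods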
# Type: biochemical
# settings: recombinant human sEH
Provide the reported IC50 of each item.
Number in nM, nothing else.

Look at this compound and give its reported IC50. COC(=O)CCCC(=O)N1CCC(NC(=O)NC23CC4CC(CC(C4)C2)C3)CC1 [Compound 1206]
2.7

What do we get for CCC(=O)N1CCC(CNC(=O)NC23CC4CC(CC(C4)C2)C3)CC1 [Compound 1162] ?
8.7

What do we get for CCCCCCCCCCCCNC(=O)Nc1ccc2[nH]cnc2c1 [Compound 1568, 1-(1H-Benzoimidazol-5-yl)-3-dodecyl-urea] ?
5020

What do we get for CCCC(=O)N1CCC(CNC(=O)NC23CC4CC(CC(C4)C2)C3)CC1 [Compound 1120] ?
6.7

What do we get for O=C(Nc1ccc2[nH]ccc2c1)NC1CCCCC1 [Compound 1554, 1-Cyclohexyl-3-(1H-indol-5-yl)-urea] ?
87

What do we get for O=C(N1CCC(NC(=O)C23CC4CC(CC(C4)C2)C3)CC1)C(F)(F)F [Compound 1643] ?
4210

What do we get for O=C(O)CCC(=O)N1CCC(CNC(=O)NC23CC4CC(CC(C4)C2)C3)CC1 [Compound 1502] ?
174

What do we get for O=C(NCC1CCN(C(=O)c2cccc(C(=O)O)c2)CC1)NC12CC3CC(CC(C3)C1)C2 [Compound 1504] ?
43.6
